biological target: T1, human EphA4 (Homo sapiens, UniProt P54764); experiment: Selectivity ELISA of humanized antibodies for human Eph receptor; assay type: binding; settings: coated protein 1 nM; reference set to 100%
T1 construct: made in house; not restated for the human SEAP-His protein
T1 sequence (P54764 20-547): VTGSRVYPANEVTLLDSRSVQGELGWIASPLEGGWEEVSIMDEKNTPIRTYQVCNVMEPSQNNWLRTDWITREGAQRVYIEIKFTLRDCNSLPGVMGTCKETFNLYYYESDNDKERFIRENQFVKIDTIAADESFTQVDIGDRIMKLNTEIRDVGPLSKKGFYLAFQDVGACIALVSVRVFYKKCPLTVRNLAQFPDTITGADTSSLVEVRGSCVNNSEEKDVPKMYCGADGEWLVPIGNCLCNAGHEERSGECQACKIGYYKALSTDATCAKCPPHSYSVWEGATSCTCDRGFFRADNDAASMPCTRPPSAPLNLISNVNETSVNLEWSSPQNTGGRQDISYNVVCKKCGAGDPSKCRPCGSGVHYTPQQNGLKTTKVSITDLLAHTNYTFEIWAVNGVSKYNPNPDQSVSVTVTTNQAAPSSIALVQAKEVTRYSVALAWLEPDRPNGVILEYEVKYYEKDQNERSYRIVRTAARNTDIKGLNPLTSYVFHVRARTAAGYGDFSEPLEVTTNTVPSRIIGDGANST
// reported hEphA4-SEAP-: absorbance at 450 nm, percentage with respect to hEphA4-SEAP-His as 100% per item
Give the quantity in %, number only.

[
  {
    "MOLECULE": "85 (antibody, V domains shown, constant regions without entry; synthetic humanized antibody light chain variable region sequence; synthetic humanized antibody heavy chain variable region sequence) VL: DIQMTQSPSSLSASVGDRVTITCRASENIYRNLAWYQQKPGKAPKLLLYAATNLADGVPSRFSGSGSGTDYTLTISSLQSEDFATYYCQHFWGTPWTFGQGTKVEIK VH: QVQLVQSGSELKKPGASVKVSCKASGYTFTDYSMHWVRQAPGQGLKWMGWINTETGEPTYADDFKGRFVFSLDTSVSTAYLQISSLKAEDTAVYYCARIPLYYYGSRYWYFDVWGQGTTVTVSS",
    "UNIT": "%",
    "RECORDED MEASUREMENT": 100
  }
]

From here, focus on the item given below.
Enquiry: Requested field: hEphA4-SEAP-: absorbance at 450 nm, percentage with respect to hEphA4-SEAP-His as 100%. Item: 77 (antibody, V domains shown, synthetic humanized antibody heavy chain variable region sequence; synthetic humanized antibody light chain variable region sequence) VH: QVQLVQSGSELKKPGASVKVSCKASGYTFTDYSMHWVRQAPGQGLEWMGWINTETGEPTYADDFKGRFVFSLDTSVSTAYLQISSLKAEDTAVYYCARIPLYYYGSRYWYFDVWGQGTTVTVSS VL: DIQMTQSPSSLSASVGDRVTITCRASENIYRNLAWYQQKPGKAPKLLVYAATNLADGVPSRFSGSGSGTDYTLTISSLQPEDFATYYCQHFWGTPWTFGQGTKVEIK
Return: 100
